Assignment: determine reported GI50 for the given compounds.
Tested on: NCI-H23
Procedure Text: NCI tumour cell line growth inhibition, 48 h
Activity calls are given as the source filed them. No stated cut-off is given here; in the data, active = GI50 up to about 1.1 µM and inactive = higher.

Read the entry COc1ccc(/N=N/c2ccc3oc(=O)c(C(=O)Nc4ccccc4C)cc3c2)cc1 and write its reported GI50.
> 10 µM (inactive)

Read the entry C/C(=N\N=C(/[SeH])N1CC2CCC(CC2)C1)c1ccccn1 and write its reported GI50.
0.052 µM (active)

Read the entry COc1cc([C@H]2Oc3cc(O)c4c(=O)cc(-c5ccccc5)oc4c3O[C@@H]2CO)ccc1O and write its reported GI50.
22.5 µM (inactive)

Read the entry COC1=CC(=O)c2c(c(COP(=O)(N(C)CCBr)N(C)CCBr)cn2C)C1=O and write its reported GI50.
< 0.0326 µM (active)

Read the entry O=C(Nc1ccc(Cl)c(Cl)c1)N1N=C2c3ccccc3CCC2C1c1ccc(Cl)cc1 (stereo not given) and write its reported GI50.
> 100 µM (inactive)

Read the entry Clc1ccc(-c2nn3c(CCCCCCCCc4nnc5sc(-c6ccc(Cl)cc6)nn45)nnc3s2)cc1 and write its reported GI50.
27.1 µM (inactive)

Read the entry CC1(C)N=C(N)N=C(N)N1c1ccc(CCCCc2ccc(Cl)cc2Cl)cc1 and write its reported GI50.
0.339 µM (active)

Read the entry COc1cccc(/C=C\c2ccnc3ccccc23)c1 and write its reported GI50.
> 10 µM (inactive)

Read the entry N#CC(C#N)=NNc1ccc2cn[nH]c2c1 and write its reported GI50.
19.1 µM (inactive)

Read the entry COc1cc2c(c(O)c1OC)C(=O)[C@@H]1CCC(=O)N1C2c1ccccc1 (stereo not given in full) and write its reported GI50.
> 100 µM (inactive)
